In this section we review reported IC50 values for a set of compounds.
Molecular target: human TLR8 (Homo sapiens, UniProt Q9NR97)
Sequence (Q9NR97 27-1041): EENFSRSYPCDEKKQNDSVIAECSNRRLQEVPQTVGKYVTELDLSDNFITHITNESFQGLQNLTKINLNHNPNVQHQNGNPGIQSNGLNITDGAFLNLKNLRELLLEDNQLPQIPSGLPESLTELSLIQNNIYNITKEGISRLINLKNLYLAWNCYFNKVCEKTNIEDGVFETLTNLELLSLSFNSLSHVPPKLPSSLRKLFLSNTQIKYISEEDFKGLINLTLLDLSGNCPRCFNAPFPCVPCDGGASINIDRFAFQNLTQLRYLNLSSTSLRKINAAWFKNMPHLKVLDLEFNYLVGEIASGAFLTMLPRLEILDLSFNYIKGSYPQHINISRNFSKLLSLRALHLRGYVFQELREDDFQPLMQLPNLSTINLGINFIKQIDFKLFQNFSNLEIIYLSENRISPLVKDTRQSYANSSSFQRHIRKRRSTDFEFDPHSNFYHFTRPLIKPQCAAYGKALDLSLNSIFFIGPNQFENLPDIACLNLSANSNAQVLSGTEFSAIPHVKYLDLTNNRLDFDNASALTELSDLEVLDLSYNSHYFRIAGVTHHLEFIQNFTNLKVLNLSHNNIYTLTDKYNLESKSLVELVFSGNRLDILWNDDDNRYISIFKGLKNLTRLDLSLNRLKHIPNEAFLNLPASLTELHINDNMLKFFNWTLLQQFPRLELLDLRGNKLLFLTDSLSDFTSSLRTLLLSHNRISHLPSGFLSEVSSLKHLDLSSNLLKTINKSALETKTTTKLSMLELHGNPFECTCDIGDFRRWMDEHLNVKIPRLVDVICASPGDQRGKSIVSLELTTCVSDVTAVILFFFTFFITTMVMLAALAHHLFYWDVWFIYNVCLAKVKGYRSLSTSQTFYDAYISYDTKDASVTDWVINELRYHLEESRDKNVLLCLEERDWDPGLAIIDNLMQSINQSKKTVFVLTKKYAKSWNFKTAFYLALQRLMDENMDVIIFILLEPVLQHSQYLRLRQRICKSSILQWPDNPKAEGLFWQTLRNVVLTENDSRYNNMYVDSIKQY
Assay: TLR8 inhibition reporter assay (HEK-Blue, SEAP)
Details: HEK-Blue cells overexpressing human TLR8, R848 15.9 μM, 22 hour incubation
# number only, unit nM dropped from output

compound	IC50 [nM]
CC(C)c1c(-c2ccc3nncn3c2)[nH]c2ccc(C3CCN(C4COC4)CC3)cc12 [Example 65]	341
Cc1c(-c2[nH]c3ccc(C4CCN(CCN5CCCS5(=O)=O)CC4)cc3c2C(C)C)cn2cnnc2c1C [Example 52]	5.8
Cc1c(-c2[nH]c3ccc(C4CCN(CC(C)(C)O)CC4)cc3c2C(C)C)cn2cnnc2c1C [Example 60]	4.3

Task item: Supply reported IC50 belonging to this compound: Cc1c(-c2[nH]c3ccc(C4C[C@H]5CC[C@@H](C4)N5CC(=O)N(C)C)cc3c2C(C)C)cn2cnnc2c1C (single isomer, unassigned) [Example 118]
Reply: 159

Cited source for all entries: patent US11130756B2
